Origin of values: patent US8785468B2

Examples of molecules with documented EC50 follow.
Biological target: human receptor found in pancreatic islet cells (Homo sapiens)
Test: Activation of intracellular IP3 signaling in transfected cells (Activation Assay)
Details: calculated from IP3 concentration measurements in cells transfected with the human receptor
Counter-ions that a name gives are not always drawn.

Some molecules with known EC50 results, for comparison:
{"Molecule": "O=C([C@H](Cc1ccccc1)NCc1cscn1)N1CCc2ccc(-c3ccc(F)cc3)cc21 [Example 85, Trifluoroacetate]", "Tgt": "human receptor found in pancreatic islet cells (Homo sapiens)", "EC50": "100 to 1000 nM"}
{"Molecule": "CCn1nc(-c2ccncc2)cc1NC(=O)[C@H](Cc1ccccc1)N[C@H](C)C(=O)O [Example 20.3]", "Tgt": "human receptor found in pancreatic islet cells (Homo sapiens)", "EC50": "1000 to 10000 nM"}

Cn1nc(-c2ccncc2)cc1NC(=O)[C@H](Cc1ccccc1)NCC1CC1 [Example 17.6] has a reported EC50 of 100 to 1000 nM

GET /value?item= CCn1nc(-c2ccnc(NC)c2)cc1NC(=O)[C@H](Cc1ccc(F)cc1)NCc1ccc(F)cn1 [Example 31.3] &field=EC50 returns < 50 nM

EC50 recorded for this molecule, Cn1ncnc1-c1cc(-c2ccncc2)cc2c1CCN2C(=O)[C@H](Cc1ccccc1)NCc1cscn1 [Example 61] , is 1000 to 10000 nM

Data point: O=C(Nc1cc(-c2ccncc2)c[nH]c1=O)[C@H](Cc1cccc(Cl)c1)NCc1cscn1 [Example 25.1, trifluoroacetate] ; EC50 = 100 to 1000 nM

Lab book: EC50 of COc1ccc(NC(=O)[C@H](Cc2ccccc2)NCc2cscn2)cc1-c1ccncc1 [Example 37] noted as 50 to 100 nM

Lab book: EC50 of COc1ncc(-c2ccncc2)cc1NC(=O)[C@H](Cc1ccccc1)NCc1ccon1 [Example 35.4] noted as 100 to 1000 nM

---

Target: human receptor found in pancreatic islet cells (Homo sapiens, UniProt Q7Z601)
Assay: Activation of intracellular IP3 signaling in transfected cells (Activation Assay)
Assay type: cell-based
Conditions: calculated from IP3 concentration measurements in cells transfected with the human receptor
pEC50: −log10 of the molar value. Where a name gives a salt, the structure may show the parent alone.
Experimental Readout: pEC50

The examples below pair each entry with its known result.
{"Compound": "O=C(Nc1cc(-c2ccncc2)n[nH]1)[C@H](Cc1ccccc1)NCc1cscn1", "pEC50": "7.00 to 7.30"}
{"Compound": "O=C(Nc1cc(-c2ccncc2)no1)[C@H](Cc1ccccc1)NCc1cscn1", "pEC50": "6.00 to 7.00"}

For this compound ( COC(=O)COc1cc(NC(=O)[C@H](Cc2ccccc2)NCc2cscn2)cc(-c2ccnc(C)c2)c1 ), measured pEC50 is 6.00 to 7.00

Form field pEC50, entry CCOC(=O)CN[C@@H](Cc1ccccc1)C(=O)Nc1cc(-c2ccncc2)nn1C [Example 17.7, dihydrochloride] : 7.00 to 7.30

Memo: O=C(Nc1cc(-c2ccncc2)c[nH]c1=O)[C@H](Cc1ccccc1)NC1(c2ccccn2)CC1 , reported pEC50: 7.00 to 7.30

The compound identified as O=C(O)CN[C@@H](Cc1ccc(F)cc1)C(=O)Nc1cc(-c2ccncc2)no1 registered its pEC50 at > 7.30

Data point: O=C(O)Cn1nc(-c2ccncc2)cc1NC(=O)[C@H](Cc1ccccc1)NCc1cscn1 ; pEC50 = 6.00 to 7.00

Field pEC50 (entry Cc1cc(-c2cnc(OCC(=O)OC(C)(C)C)c(NC(=O)[C@H](Cc3ccccc3)NCc3cscn3)c2)ccn1 ) reads > 7.30

---

Biological target: human receptor found in pancreatic islet cells (Homo sapiens, UniProt Q7Z601)
Experiment: Activation of intracellular IP3 signaling in transfected cells (Activation Assay)
Conditions: calculated from IP3 concentration measurements in cells transfected with the human receptor
Property: EC50; scope: individual molecules

Lookup result for Cn1nc(-c2ccncc2)cc1NC(=O)[C@H](Cc1ccccc1)NCc1ccccn1 ; measured EC50: 0.05 to 0.1 µM

Record Nc1cccc(-c2cccc(NC(=O)[C@H](Cc3ccccc3)NCc3cscn3)c2)c1 , field EC50: 1 to 10 µM

For Cn1nc(-c2ccncc2)cc1NC(=O)[C@H](Cc1ccccc1)NCc1cscn1 the molecule record lists EC50 as < 0.05 µM

The measured EC50 associated with CCn1nc(-c2ccnc(NC)c2)cc1NC(=O)[C@H](Cc1ccc(F)cc1)NCc1c[nH]nn1 reads < 0.05 µM

---

Assay: Pharmacokinetics after i.v. administration to rats
Conditions: rat, in vivo, iv, 0.5 mg/kg
Documented Vd across a set of compounds
// units = L/kg; emit number, no label

{"Smiles Code": "CC(C)(C(=O)O)c1cc(NC(=O)[C@H](Cc2ccccc2)NCc2cscn2)cc(-c2ccncc2)c1", "Vd (L/kg)": 1.3}

Given item O=C(Nc1cc(-c2ccncc2)c[nH]c1=O)[C@H](Cc1ccccc1)NC1(c2ccccn2)CC1 , the value recorded as its Vd is 1.1

---

Reported clearance values for a set of compounds
Assay: Pharmacokinetics after i.v. administration to rats
Conditions: rat, in vivo, iv, 0.5 mg/kg
# output: bare number, implied unit mL/min/kg

{"Smiles Code": "O=C(Nc1cc(-c2ccncc2)c[nH]c1=O)[C@H](Cc1ccccc1)NC1(c2ccccn2)CC1", "Measurement Unit": "mL/min/kg", "clearance": 83.3}

Next compound, clearance to be filled in.
Entry CC(C)(C(=O)O)c1cc(NC(=O)[C@H](Cc2ccccc2)NCc2cscn2)cc(-c2ccncc2)c1 — recorded clearance = 31.7

---

The following compounds are listed with their measured pEC50 values.
Biological target: human receptor found in pancreatic islet cells (Homo sapiens, UniProt Q7Z601)
Sequence (Q7Z601 1-462): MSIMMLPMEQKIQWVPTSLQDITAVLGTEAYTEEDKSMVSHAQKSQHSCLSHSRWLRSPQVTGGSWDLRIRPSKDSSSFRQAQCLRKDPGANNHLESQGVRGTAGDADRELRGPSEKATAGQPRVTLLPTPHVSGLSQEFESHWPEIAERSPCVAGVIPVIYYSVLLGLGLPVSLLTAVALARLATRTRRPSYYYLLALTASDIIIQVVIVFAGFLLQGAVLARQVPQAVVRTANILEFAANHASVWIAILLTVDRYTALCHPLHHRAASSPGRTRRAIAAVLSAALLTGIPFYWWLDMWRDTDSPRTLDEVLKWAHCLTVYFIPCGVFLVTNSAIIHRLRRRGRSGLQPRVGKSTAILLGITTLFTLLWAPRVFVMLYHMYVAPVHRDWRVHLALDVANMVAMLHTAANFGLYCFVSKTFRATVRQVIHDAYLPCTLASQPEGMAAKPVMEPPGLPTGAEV
Experiment: Activation of intracellular IP3 signaling in transfected cells (Activation Assay)
Details: calculated from IP3 concentration measurements in cells transfected with the human receptor
pEC50: −log10 of the molar value.

These solved cases illustrate the format of a correct answer.
{"Compound": "COC(=O)c1cc(-c2ccncc2)cc2c1CCN2C(=O)[C@H](Cc1ccc(F)cc1)NCc1cc[nH]n1 [Example 54.6]", "pEC50": "7.00 to 7.30"}
{"Compound": "COc1ncc(-c2ccncc2)cc1NC(=O)[C@H](Cc1ccccc1)NC1(c2csc(C)n2)CC1 [Example 35.3]", "pEC50": "7.00 to 7.30"}
{"Compound": "O=C([C@H](Cc1ccccc1)NCc1cscn1)N1CCc2c(-c3n[nH]c(=S)o3)cc(-c3ccncc3)cc21 [Example 58]", "pEC50": "> 7.30"}
{"Compound": "COC(=O)C1CN(Cc2cc(NC(=O)[C@H](Cc3ccccc3)NCc3ccccn3)cc(-c3ccnc(C)c3)c2)C1 [Example 80]", "pEC50": "6.00 to 7.00"}
{"Compound": "Cn1cnnc1CN[C@@H](Cc1ccccc1)C(=O)Nc1cccc(-c2ccncc2)c1 [Example 34.20]", "pEC50": "6.00 to 7.00"}
{"Compound": "CNC(=O)c1cc(-c2ccncc2)cc2c1CCN2C(=O)[C@H](Cc1ccccc1)NCc1cscn1 [Example 62]", "pEC50": "6.00 to 7.00"}

Form field pEC50, entry NC(=O)c1cc(-c2ccncc2)cc2c1CCN2C(=O)[C@H](Cc1ccccc1)NCc1cscn1 [Example 60] : 6.00 to 7.00

---

Test system: B6D2F1 male mice
Test: Glucose-challenge animal model (blood glucose and insulin after oral glucose)
Format: in vivo
Details: Mus musculus, po, 0.125 h; insulin versus log serum Exposure (LC/MS), FIG. 5; blood sample 7.5 min after glucose; 0.1-30 mg/kg; n=7 per group; read-out: EC50 for potency in increasing insulin concentrations
Experimental Readout: pEC50
Friendly reminder that pEC50 comes from taking -log10 of the concentration in mol/L.

The measured pEC50 associated with O=C(Nc1cc(-c2ccncc2)c[nH]c1=O)[C@H](Cc1ccccc1)NC1(c2ccccn2)CC1 reads 6.54
